[
  {
    "mol": "COc1ccc(C(=O)c2cc(-c3ccc(Cl)cc3)c(N3CCOCC3)s2)cc1",
    "melting point": "120 °C"
  },
  {
    "mol": "Cn1ncc2c(=O)n3c(nc21)SCC3(C)C",
    "melting point": "188 °C"
  },
  {
    "mol": "COc1ccc(-c2nc(C(F)F)oc2-c2ccc(OCCNC(N)=O)cc2)cc1",
    "melting point": "146 to 149 °C"
  },
  {
    "mol": "Clc1cc(-c2cnco2)nc(Cl)c1Cl",
    "melting point": "128 to 130 °C"
  },
  {
    "mol": "COc1c(OCc2ccccc2)cnc(CNc2nc(C)nc(C)c2Cl)c1C",
    "melting point": "114 to 116 °C"
  },
  {
    "mol": "CCOC(=O)CCc1ccc(OC)c(OCc2ccccc2)c1",
    "melting point": "49.5 to 50.5 °C"
  }
]

---

melting point listing for selected compounds.
observable: melting point

[
  {
    "compound": "O=C1C(Cc2ccccc2)CCCCCC1Cc1ccccc1 (stereo not given)",
    "reported.measurement": "66 to 68 °C"
  },
  {
    "compound": "O=C(NCc1ccccn1)Nc1cc(N2CC(c3cccc(F)c3)CC2=O)ccn1 (stereo not given)",
    "reported.measurement": "188 to 189 °C"
  },
  {
    "compound": "COc1ccc(N2CCN(c3c(C)c(C)c4c(c3C)C(CN3CCCCC3)C(C)(C)O4)CC2)cc1 (stereo not given)",
    "reported.measurement": "144 to 145 °C"
  },
  {
    "compound": "CN1CCC(C(=O)OC2c3ccccc3C(=O)N2c2ccc3ccc(Cl)nc3n2)CC1 (stereo not given)",
    "reported.measurement": "136 °C"
  },
  {
    "compound": "Cc1cc2c(cc1Cl)NC(=O)C2c1ccccc1Cl (stereo not given)",
    "reported.measurement": "186 °C"
  }
]

---

Measured melting point accompanies every entry in the list below.

[
  {
    "molecule": "CN1CCN(c2cccc(-c3cnn4c(N)c(Cc5cccc(Br)c5)cnc34)c2)CC1",
    "melting point": "170 to 171 °C"
  },
  {
    "molecule": "O=C1c2cnc(N3CCN(Cc4ccccc4)CC3)nc2CN1C1CCCCC1",
    "melting point": "176 to 178 °C"
  },
  {
    "molecule": "CCNC(=O)[C@H](C)NC(=O)[C@H](C)NC(=O)CC",
    "melting point": "289 to 291 °C"
  },
  {
    "molecule": "CCOC(=O)c1cc(-c2ccc(Cl)cc2)c(Cl)nc1NC=O",
    "melting point": "184 to 187 °C"
  },
  {
    "molecule": "CN(C)c1ccc(C=NC2CCCCC2N=Cc2ccc(O)cc2O)c(O)c1 (stereo not given)",
    "melting point": "202 °C"
  }
]

---

In this section we review reported melting point values for a set of compounds.
observable: melting point

[
  {
    "compound": "CC(CC=Cc1ccccc1)C1CC=C2C3=C(CCC21C)C1(C)CCC(O)C(C)(C)C1CC3 (centres undefined)",
    "reported.measurement": "127 °C"
  },
  {
    "compound": "COc1ccc(S(=O)(=O)C2(C(=O)O)CCN(Cc3ccc(F)cc3)CC2)cc1",
    "reported.measurement": "154 °C"
  },
  {
    "compound": "CN(CCc1cccc(O)c1)c1cnc(-c2ccccc2)c(-c2ccccc2)n1",
    "reported.measurement": "158 to 161 °C"
  },
  {
    "compound": "COc1ccc(C(=O)O)c(Oc2ccc(C(F)(F)F)cc2NS(=O)(=O)c2cc(C(F)(F)F)cc(C(F)(F)F)c2)c1",
    "reported.measurement": "182 °C"
  },
  {
    "compound": "CCOC(=O)Cn1ncc(-c2ccccc2)c1-c1ccccc1",
    "reported.measurement": "79 to 81 °C"
  },
  {
    "compound": "CCOC(=O)Nc1ccc(C(c2ccccc2)n2ccnc2)cc1CO (centres undefined)",
    "reported.measurement": "143 °C"
  },
  {
    "compound": "COC(=O)c1cc(C)c(C(OC(=O)C(C)NS(=O)(=O)c2ccc(C)cc2)c2cc(-n3ccnc3)ccc2C)c(C)c1 (centres undefined)",
    "reported.measurement": "103 to 105 °C"
  },
  {
    "compound": "OC(c1cccs1)C1CCCCC1 (centres undefined)",
    "reported.measurement": "90 to 92 °C"
  },
  {
    "compound": "Nc1nc(N)nc(-c2ccc(Sc3ccccc3)cc2)n1",
    "reported.measurement": "213 to 215 °C"
  },
  {
    "compound": "COCc1nc2c(C(F)(F)F)cccc2c(=O)o1",
    "reported.measurement": "104 to 106 °C"
  },
  {
    "compound": "CC(C)(C)NC(=O)[C@@H]1CCCN1C(=O)[C@@H](O)[C@H](Cc1ccccc1)NC(=O)[C@H](CC(N)=O)NC(=O)COC1CCN(C(=O)OCc2ccccc2)CC1",
    "reported.measurement": "98 to 104 °C"
  },
  {
    "compound": "N#CN=C(Nc1ccncc1)NC1CCCCCCC1",
    "reported.measurement": "198 to 199 °C"
  },
  {
    "compound": "CCN1C(=O)C(C)(C)C(=O)N(C)c2cc(CN(CCn3cc(C)c4occc4c3=O)Cc3cc(COC)nn3C)ccc21",
    "reported.measurement": "169 to 170 °C"
  },
  {
    "compound": "Cc1ccc(C)n1-c1ccc([C@@H](O)CN2C(=O)c3ccccc3C2=O)cn1",
    "reported.measurement": "167 to 170 °C"
  },
  {
    "compound": "CCOC(=O)c1cnc2c3ccccc3c(OC)cn2c1=O",
    "reported.measurement": "190 to 193 °C"
  },
  {
    "compound": "CCOC(=O)c1c(-c2ccc(F)cc2)c(-c2ccc(F)cc2)c(C=O)n1C(C)C",
    "reported.measurement": "92 to 94 °C"
  },
  {
    "compound": "O=c1c(Cl)c(SCc2ccc(Cl)cc2)cnn1-c1ccccc1",
    "reported.measurement": "154 to 155 °C"
  },
  {
    "compound": "COc1cc(I)c(Oc2cnc(N)nc2N)cc1I",
    "reported.measurement": "136 to 138 °C"
  },
  {
    "compound": "O=C(Nc1cccc(S(=O)(=O)NC2CC2)c1)c1cnn2c(C(F)F)cc(-c3ccc(Cl)cc3)nc12",
    "reported.measurement": "262 °C"
  }
]

---

[
  {
    "molecule": "CCC(CC)O[C@@H]1C=C(C(=O)O)C[C@H](CC2CO2)[C@H]1NC(C)=O (stereo not given in full)",
    "melting point": "115 to 116 °C"
  },
  {
    "molecule": "CS(=O)(=O)c1ccc(-c2sc(-c3ccccc3Cl)nc2-c2cccc(F)c2)cc1",
    "melting point": "134 to 135 °C"
  },
  {
    "molecule": "Cc1oc(-c2ccccc2)nc1C(=O)COc1ccc(C=C2SC(=O)NC2=O)cc1",
    "melting point": "244 to 245 °C"
  },
  {
    "molecule": "CN1CCCCC1CNC(=O)Nc1cc(OCC(F)(F)F)ccc1OCC(F)(F)F (stereo not given)",
    "melting point": "123 to 126 °C"
  },
  {
    "molecule": "CCOC(=O)C=CN1C(C)(C)CC(N(C=O)CCCCCCN(C=O)C2CC(C)(C)N(C=CC(=O)OCC)C(C)(C)C2)CC1(C)C",
    "melting point": "172 °C"
  },
  {
    "molecule": "Cn1c2ccc(-c3nnn[nH]3)cc2c(=O)c2cccnc21",
    "melting point": "321 °C"
  },
  {
    "molecule": "CC[C@@H](C=O)NC(=O)OC(C)(C)C",
    "melting point": "39 to 43 °C"
  },
  {
    "molecule": "O=C(Cn1ccnc1)c1ccccc1O",
    "melting point": "195 to 200 °C"
  },
  {
    "molecule": "CCS(=O)(=O)Nc1cc(-c2ncnc(C(F)F)c2Cl)c(Cl)cc1Cl",
    "melting point": "140 to 142 °C"
  },
  {
    "molecule": "CCc1nc(-c2ccc(/C=C/C3(O)CN4CCC3CC4)cc2)no1 (stereo not given)",
    "melting point": "158 to 160 °C"
  },
  {
    "molecule": "O=C(Nc1ccc(C(=O)c2ccccc2)cc1)c1cc(Cl)cc(Cl)c1",
    "melting point": "219 to 220 °C"
  },
  {
    "molecule": "C=CCOc1ccc2ccc(O)cc2c1",
    "melting point": "78 to 80 °C"
  },
  {
    "molecule": "COc1ccc(Nc2nc(-c3ccccc3)c(-c3nc4ccccc4c(=O)n3-c3ccc(Cl)cc3)s2)cc1",
    "melting point": "262 to 263 °C"
  },
  {
    "molecule": "CCOC(=O)c1cc2c(s1)CC(C)(C)C2=O",
    "melting point": "41 to 42 °C"
  },
  {
    "molecule": "Nc1nc2c(ncn2CCC(COC(=O)n2ccnc2)COC(=O)n2ccnc2)c(=O)[nH]1",
    "melting point": "> 300 °C"
  },
  {
    "molecule": "CCOC(=O)Oc1cc2c(s1)CCN([C@H](C(=O)OC)c1ccccc1Cl)C2",
    "melting point": "42 to 44 °C"
  },
  {
    "molecule": "CC(C)(C)OC(=O)NCc1ccc(N2CC(C(=O)O)OC2=O)cc1 (stereo not given)",
    "melting point": "166 °C"
  },
  {
    "molecule": "OCc1ccc(OCc2ccccc2)c2c1OCCO2",
    "melting point": "106 °C"
  },
  {
    "molecule": "CN(C)c1c(S(=O)C(F)(F)F)c(-c2ncon2)nn1-c1c(Cl)cc(C(F)(F)F)cc1Cl (stereo not given)",
    "melting point": "82 to 84 °C"
  },
  {
    "molecule": "COC(=O)C(Oc1ccccc1)c1ccc(I)cc1 (stereo not given)",
    "melting point": "68 to 71 °C"
  }
]

The measurements presented in this section are drawn from a melting point compilation (Tetko et al.; mined from patent text by program, amines drawn as free bases though some values may be those of a salt).
